# test system: ADAM10 (Homo sapiens, UniProt O14672)
# assay method text: In vitro inhibition of recombinant ADAM10
# condition summary: Hepes buffer pH 7.5
endpoint name: IC50 (nM)

{"columns": ["cpd smiles", "test system", "endpoint name", "measured"],
 "data": [
  ["Cc1cc(COc2ccc([C@]3(N)CCN([C@H](CC(C)C)C(=O)NO)C3=O)cc2)c2ccccc2n1", "ADAM10 (Homo sapiens, UniProt O14672)", "IC50", 5.3],
  ["CNC(=O)[C@@H](NC(=O)[C@H](CCCc1ccccc1)[C@H](C)N(O)C=O)C(C)(C)C", "ADAM10 (Homo sapiens, UniProt O14672)", "IC50", 1.5]
]}

----------
# test system: ADAM10 (Homo sapiens)
# Sequence (O14672 214-748): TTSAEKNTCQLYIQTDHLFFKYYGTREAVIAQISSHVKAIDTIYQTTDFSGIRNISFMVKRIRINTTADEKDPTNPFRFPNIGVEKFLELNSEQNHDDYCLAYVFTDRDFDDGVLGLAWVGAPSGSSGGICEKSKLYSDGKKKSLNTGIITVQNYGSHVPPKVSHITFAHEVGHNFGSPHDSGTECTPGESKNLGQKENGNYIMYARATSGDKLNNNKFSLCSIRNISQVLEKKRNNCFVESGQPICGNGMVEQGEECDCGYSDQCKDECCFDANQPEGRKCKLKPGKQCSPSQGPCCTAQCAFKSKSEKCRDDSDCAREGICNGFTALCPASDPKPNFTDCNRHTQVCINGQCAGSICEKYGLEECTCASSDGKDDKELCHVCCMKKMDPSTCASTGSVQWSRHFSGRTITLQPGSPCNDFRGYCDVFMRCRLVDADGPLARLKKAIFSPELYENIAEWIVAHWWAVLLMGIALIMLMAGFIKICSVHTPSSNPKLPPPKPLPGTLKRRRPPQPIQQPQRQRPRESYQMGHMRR
# assay method text: In vitro cleavage of TREM2 stalk region peptides by ADAM10
# Assay type: biochemical
# condition summary: data not shown

{"columns": ["substance", "Cleavage by ADAM10"],
 "data": [
  ["Peptide 6: TREM2 stalk peptide, H-SI cleavage site replaced with IDP; SEQ ID NO: 32 (DAHVEIDPSRSLLEGEIPFP)", "slowly cleaved"],
  ["Peptide 5: TREM2 stalk peptide, H-SI cleavage site replaced with IPD; SEQ ID NO: 31 (DAHVEIPDSRSLLEGEIPFP)", "slowly cleaved"]
]}

----------
# test system: ADAM17 (Homo sapiens, UniProt P78536)
# Sequence (P78536 215-824): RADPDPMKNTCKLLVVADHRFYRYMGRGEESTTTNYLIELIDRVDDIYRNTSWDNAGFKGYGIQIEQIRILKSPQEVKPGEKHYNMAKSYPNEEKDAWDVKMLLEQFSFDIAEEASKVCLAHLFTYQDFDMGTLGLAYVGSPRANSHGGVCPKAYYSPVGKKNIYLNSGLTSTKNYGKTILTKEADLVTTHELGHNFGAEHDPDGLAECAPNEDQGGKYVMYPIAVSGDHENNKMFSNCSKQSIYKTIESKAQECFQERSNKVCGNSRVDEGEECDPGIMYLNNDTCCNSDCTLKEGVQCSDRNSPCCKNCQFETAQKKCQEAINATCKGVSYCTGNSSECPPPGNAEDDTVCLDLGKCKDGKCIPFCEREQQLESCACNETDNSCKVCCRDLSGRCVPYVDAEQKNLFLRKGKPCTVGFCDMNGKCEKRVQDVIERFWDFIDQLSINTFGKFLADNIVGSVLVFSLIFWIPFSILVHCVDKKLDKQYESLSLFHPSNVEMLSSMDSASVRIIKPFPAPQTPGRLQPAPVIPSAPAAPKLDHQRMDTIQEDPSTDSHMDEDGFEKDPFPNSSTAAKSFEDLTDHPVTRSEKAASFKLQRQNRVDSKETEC
# assay method text: In vitro inhibition of recombinant ADAM17
# condition summary: Hepes buffer pH 7.5
pIC50: −log10 of the molar value.

{"columns": ["molecule", "op", "pIC50"],
 "data": [
  ["Cc1cc(COc2ccc([C@]3(N)CCN([C@H](CC(C)C)C(=O)NO)C3=O)cc2)c2ccccc2n1 [DPC333]", ">", 9.22],
  ["CNC(=O)[C@@H](NC(=O)[C@H](CCCc1ccccc1)[C@H](C)N(O)C=O)C(C)(C)C [GI254023]", "=", 6.71]
]}

// provenance: patent US20200207830A1
